System: SF-539 CNS
method.notes: NCI-60 one-dose screen, 48 h (100 = growth as untreated, 0 = no growth, -100 = all killed)
condition.info: 10 µM
Description: Cells are grown in 96 well plates and exposed to the test compound for 48 hours. Compounds are tested at a single concentration, which is 10^-5 M for most compounds. The reported endpoint is percent growth (GI% or GIPRCNT), where numbers from 0 - 100% represent growth inhibition, and numbers from -100% - 0 represent cell death. For example, a value of 40 represents 60% growth inhibition. A value of 0 means no net growth occurred over the course of the experiment. […]
The panel holds about 83,000 compounds, 20% with a hit somewhere; the sample as a whole holds those more often.
Category key, based on recorded growth: bottom end = under -60%, midrange = from -60% up to 60%, top end = 60% and over

Below, 5 compounds whose answers are already recorded.
compound=Cc1ccc2nc(-c3ccc(-c4nnc(SCC(=O)Nc5ccc(Cl)cc5)o4)cc3)[nH]c2c1 classification=midrange
compound=O=C(CS(=O)(=O)c1oc(-c2ccc(Cl)cc2)nc1S(=O)(=O)c1ccccc1)N1CCCC1 classification="bottom end"
compound=O=C1Nc2ccc(F)cc2/C1=C/c1cccc(OCc2ccccc2)c1 classification=midrange
compound=O=C(CNc1nc(-c2ccccc2)cs1)Nc1ccccc1 classification="bottom end"
compound=COc1ccc(/C(CSc2nnc(-c3c[nH]c4ccccc34)n2-c2ccccc2)=N/O)cc1 classification=midrange

Task item: Which growth band matches CCCn1c(=O)c2[nH]c(-c3ccc(OCc4nc5ccc(C#N)cc5[nH]4)cc3)nc2n(CCC)c1=O ?
Reply: top end

Task item: Which growth band matches N#Cc1c(NC(=O)c2ccc(C(F)(F)F)cc2)sc2c1CCC(O)=C2 ?
Reply: midrange

Task item: Which growth band matches O=c1oc2ccc(-c3ccc(F)cc3F)cc2c(=O)n1-c1ccc(F)cc1 ?
Reply: midrange

* * *

System: MDA-MB-468 breast
method.notes: NCI-60 one-dose screen, 48 h
condition.info: 10 µM
Compounds without any hit were thinned out: in the full panel of roughly 83,000, 20% have a hit. Calls of active or inactive are those of the source. How the source made its calls: active means growth percent below 10; inactive means the rest.
The reply should be one of these categories: Yes (active), No (inactive)

Below, 5 molecules whose answers are already recorded.
molecule=O=C(CSc1nnc(-c2ccc3nc(-c4ccc(Cl)cc4)[nH]c3c2)o1)Nc1ccc(Cl)cc1 assay_target="MDA-MB-468 breast" classification=Yes
molecule=CC(C)NC(=O)c1cc(-c2ccc(NC(=O)Nc3ccc(N4CCN(C)CC4)c(C(F)(F)F)c3)cc2)nc2cccnc12 assay_target="MDA-MB-468 breast" classification=Yes
molecule=Clc1cccc(N/N=C/c2c[nH]c3ccccc23)n1 assay_target="MDA-MB-468 breast" classification=Yes
molecule="O=C(c1ccc(O)cc1)C1[C@H](c2ccc(Br)cc2)[C@@H](c2ccccc2)NC12C(=O)Nc1ccc(Br)cc12 (stereo partly specified)" assay_target="MDA-MB-468 breast" classification=Yes
molecule=O=C(NO)c1ccc(-c2nc3ccc4[nH]ncc4c3c3c2CCCC3)cc1 assay_target="MDA-MB-468 breast" classification=Yes

Task item: # outcome recorded in this test, key = O=C(CS(=O)(=O)c1oc(-c2ccc(Cl)cc2)nc1S(=O)(=O)c1ccccc1)N1CCCC1
Reply: Yes

Task item: # outcome recorded in this test, key = COc1ccc(-c2cc(C(=O)N=Nc3c(O)[nH]c4ccc(F)cc34)c3ccccc3n2)cc1
Reply: No

Task item: # outcome recorded in this test, key = COc1ccc(-c2cc(-c3cc(C(=O)c4ccccc4)n4ccc(C)cc34)nc(N)c2C#N)cc1
Reply: No

Task item: # outcome recorded in this test, key = CCOC(=O)C1=C(N)N(c2ccccc2)C2=C(C(=O)CC(C)(C)C2)C1c1ccc(Cl)cc1 (stereo unspecified)
Reply: No
